Source: PubChem BioAssay AID463204

# Test system: S. cerevisiae Mot1-301 ts growth rescue, BacTiter-Glo ATP luminescence
# assay name: restored Mot1-301 yeast growth at 38.5C – whole organism, S. cerevisiae, Mot1-301 ts mutant, luminescence, dose retest, SUMOylation pathway inhibitor project, confirmation (AID 463204);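 further: growth at restrictive 38.5 degrees C of Mot1-301 OY566 strain; actives raise luminescence by restoring growth of the ts mutant at high temperature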
Calls of active or inactive are those of the source.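 How the source made its calls: active means AC50 no more than ten times the top concentration tested, that is within one log above it; inconclusive means flat curve fit with activity between 30% and 70%, or invalid poor fit; inactive means AC50 beyond ten times the top tested dose.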
Please reply with one of these outcomes: active, inactive

Example cases with answers are listed next.
>>> label_class("Cc1ccc(NC(=O)Cn2nc(C)c3ccccc3c2=O)cc1")
"inactive"
>>> label_class("CCOc1ccccc1CN1CCN(Cc2ccon2)CC1CCO (configuration not stated)")
"inactive"
>>> label_class("CCn1c(CSCc2ccc(F)cc2)nnc1SCC(=O)NCc1ccccc1")
"inactive"
>>> label_class("O=C(CSc1cccc[n+]1[O-])N1CCc2ccccc21")
"inactive"
>>> label_class("Cn1cnnc1-c1cccc(NS(=O)(=O)c2ccc(N3CCCC3=O)cc2)c1")
"inactive"

Hi, sorry to bother you, what did the test record for Cc1ccc(/C=N/NC(=O)NC23CC4CC(CC(C4)C2)C3)o1 ?
inactive

Subsequent entry: O=C(COc1ccccc1)NCCS(=O)(=O)N1CCN(c2ccccc2)CC1
inactive

Subsequent entry: COc1cccc(-n2nnc3c(=O)n(CC(=O)N4CCCc5ccccc54)cnc32)c1
inactive

Subsequent entry: Cc1ccccc1NC(=O)COC(=O)C1C2CC3OC(=O)C1C3C2 (configuration not stated)
inactive

Subsequent entry: O=C(N/N=C\c1cn(-c2ccccc2)nc1-c1ccccc1)c1ccc(Br)o1
inactive
